The reported numbers originate from patent US12378268B2.

- test target: THR-β (Homo sapiens, UniProt P10828)
- Construct: TRB LBD, GST purchased from Thermo Fisher; purchased Thermo Fisher PV4762
- Sequence (P10828 217-461 limits assumed, other chains not shown): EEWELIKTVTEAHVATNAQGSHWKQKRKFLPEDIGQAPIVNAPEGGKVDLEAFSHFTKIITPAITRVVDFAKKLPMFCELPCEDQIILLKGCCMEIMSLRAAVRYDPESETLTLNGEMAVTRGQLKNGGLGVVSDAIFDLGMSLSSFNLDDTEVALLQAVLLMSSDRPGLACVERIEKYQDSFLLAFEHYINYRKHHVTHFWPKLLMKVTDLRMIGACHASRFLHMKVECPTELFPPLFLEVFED
- Sequence (P28702 whole entry partner, other chains not shown, the tested form may be a part): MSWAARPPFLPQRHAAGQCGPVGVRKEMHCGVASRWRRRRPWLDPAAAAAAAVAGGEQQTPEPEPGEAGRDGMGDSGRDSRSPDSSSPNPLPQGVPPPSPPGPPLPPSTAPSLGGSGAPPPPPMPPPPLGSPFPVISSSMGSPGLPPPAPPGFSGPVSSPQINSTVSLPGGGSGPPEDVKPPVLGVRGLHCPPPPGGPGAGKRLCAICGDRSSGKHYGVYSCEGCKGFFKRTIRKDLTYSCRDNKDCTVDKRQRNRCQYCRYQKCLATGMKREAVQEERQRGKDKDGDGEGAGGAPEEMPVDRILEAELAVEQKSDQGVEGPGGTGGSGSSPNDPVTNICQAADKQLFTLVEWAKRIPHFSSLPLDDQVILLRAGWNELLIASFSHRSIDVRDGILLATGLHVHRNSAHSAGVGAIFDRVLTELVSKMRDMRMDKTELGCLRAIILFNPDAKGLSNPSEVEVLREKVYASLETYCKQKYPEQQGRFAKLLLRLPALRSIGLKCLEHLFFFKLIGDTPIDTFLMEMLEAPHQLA
- assay info: Test of the binding ability of the compound to TRβ (TRβ LBD/RXR, biotin-SRC2-2 co-activating peptide, 665/615 nm fluorescence ratio)
- Assay type: biochemical
- run conditions: calculated after being standardized with T3
measure: α/β selectivity (multiple)

- compound: "Cc1cc(OCP(=O)(O)O)cc(C)c1Cc1ccc(O)c2c1CCCC2(C)C [Compound 3]"
  test target: "THR-β (Homo sapiens, UniProt P10828)"
  unit annotation: "multiple"
  α/β selectivity (multiple): 4.8

A. Cc1cc(OCP(=O)(O)O)cc(C)c1Cc1ccc(O)c2c1CCCC2 [B, reference compound]
B. Cc1cc(OCP(=O)(O)O)cc(C)c1Cc1ccc(O)c(C(C)C)c1 [MB07444, reference compound]
C. Cc1cc(OCP(=O)(O)O)cc(C)c1Cc1ccc(O)c2ccccc12 [A, reference compound]
D. CC1(C)CCc2c(Cc3c(Cl)cc(OCP(=O)(O)O)cc3Cl)ccc(O)c21 [Compound 6]
E. Cc1cc(OCP(=O)(O)O)cc(C)c1Cc1ccc(O)c2c1CCC2(C)C [Compound 1]
-- ask List items by α/β selectivity (multiple) in falling order. Form entry: labels listed in requested order.
-- reply A, E, C, B, D
